Where do the numbers come from? From the RepoRT retention time repository (doi:10.1021/acs.analchem.1c00972).

- assay_protocol: RP, Waters ACQUITY UPLC BEH C18, 100 × 1 mm, 1.7 µm, 50 °C, 0.3 mL/min, estimated dead time 0.17 min; A: water + 0.1% formic acid + 20 mM ammonium formate; B: methanol + 0.1% formic acid + 20 mM ammonium formate; gradient (min/%B) 0/0 15/100 21/100 22/0 30/0
- test_context: stereoisomer not certain
Would you mind telling me the reported LC retention time of each entry?
Answer format: numeric, min implied, no suffix.

Exercise: Provide one value: measured LC retention time of O=[P+](c1ccccc1)c1ccccc1 [Diphenylphosphine oxide]
Solution: 11.8

Exercise: Provide one value: measured LC retention time of CC(C)C(N)C(=O)OCC(CO)OCn1cnc2c(=O)[nH]c(N)nc21 (centres undefined) [Valganciclovir]
Solution: 5.17

Exercise: Provide one value: measured LC retention time of O=C1CC2(CCCCC2)CN1 [Gabapentin-Lactam]
Solution: 11.3

Exercise: Provide one value: measured LC retention time of CCC(C)(CC)c1cc(NC(=O)c2c(OC)cccc2OC)on1 [Isoxaben]
Solution: 14.4

Exercise: Provide one value: measured LC retention time of O=C(Oc1ccccc1)c1ccccc1C(=O)Oc1ccccc1 [Diphenylphthalate]
Solution: 15.7

Exercise: Provide one value: measured LC retention time of CSC(=O)c1cccc2nnsc12 [Acibenzolar-S-methyl]
Solution: 13.7

Exercise: Provide one value: measured LC retention time of CC(=O)OCC(=O)C12OC3(CCCC3)OC1CC1C3CCC4=CC(=O)C=CC4(C)C3(F)C(O)CC12C (centres undefined) [Amcinonide]
Solution: 15.6

Exercise: Provide one value: measured LC retention time of CC=C(C)C(=O)OC1CCC2(C)C3CCC4C5(O)CC(O)C6(O)C(CN7CC(C)CCC7C6(C)O)C5(O)CC42OC13O (centres undefined) [Cevadine]
Solution: 12.6

Exercise: Provide one value: measured LC retention time of CC(=O)Nc1ccc(O)c(C(=O)O)c1 [N-Acetyl mesalazine]
Solution: 6.82
